From: the Human Domainome abundance scans (Beltran et al. 2025)

B1: Zinc finger homeobox protein 3, residues 2643 to 2698; numbered along this chain, Q15911 (parent)
chain: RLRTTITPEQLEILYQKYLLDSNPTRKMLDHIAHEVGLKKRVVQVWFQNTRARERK

Variants of: B1
PROTOCOL NOTES: abundance fitness (aPCA) (normalised: wild type 0, dead -1); higher = more abundant; growth selection in yeast, the domain comes from the species named
PARTICULARS: Homo sapiens
Lab note: anything with abundance fitness at or over -0.03 counts as YES; the rest go in NO.

Worked set:
D30L: NO
R53V: YES
K17T: NO
L38H: NO
E54M: NO

We now examine a further variant.
Lookup: I'd appreciate it if you could say whether K39Q has abundance fitness at least equal to -0.03.
Found: YES
